# assay_overview: AUC (0 to t) in rat at 10 mg/kg, po
# Type: ADME, organism-based
# Parameters: dose 10 mg/kg, route oral
# measurement_conditions: plasma
measured_property: AUC(0-t) (ng·h/mL)

>  <compound>
COCCCOc1cc(C[C@@H](C[C@H](N)[C@@H](O)C[C@H](C(=O)NCC(C)(C)C(N)=O)C(C)C)C(C)C)ccc1OC.COCCCOc1cc(C[C@@H](C[C@H](N)[C@@H](O)C[C@H](C(=O)NCC(C)(C)C(N)=O)C(C)C)C(C)C)ccc1OC.O=C(O)/C=C/C(=O)O [ALISKIREN FUMARATE]

>  <measured_property>
AUC(0-t)

>  <observed>
21

$$$$
